# pIC50 per record follows
# Tested target: Ephrin type-A receptor 2 (Homo sapiens, UniProt P29317)
# Sequence (P29317 whole entry, the tested form may be a part): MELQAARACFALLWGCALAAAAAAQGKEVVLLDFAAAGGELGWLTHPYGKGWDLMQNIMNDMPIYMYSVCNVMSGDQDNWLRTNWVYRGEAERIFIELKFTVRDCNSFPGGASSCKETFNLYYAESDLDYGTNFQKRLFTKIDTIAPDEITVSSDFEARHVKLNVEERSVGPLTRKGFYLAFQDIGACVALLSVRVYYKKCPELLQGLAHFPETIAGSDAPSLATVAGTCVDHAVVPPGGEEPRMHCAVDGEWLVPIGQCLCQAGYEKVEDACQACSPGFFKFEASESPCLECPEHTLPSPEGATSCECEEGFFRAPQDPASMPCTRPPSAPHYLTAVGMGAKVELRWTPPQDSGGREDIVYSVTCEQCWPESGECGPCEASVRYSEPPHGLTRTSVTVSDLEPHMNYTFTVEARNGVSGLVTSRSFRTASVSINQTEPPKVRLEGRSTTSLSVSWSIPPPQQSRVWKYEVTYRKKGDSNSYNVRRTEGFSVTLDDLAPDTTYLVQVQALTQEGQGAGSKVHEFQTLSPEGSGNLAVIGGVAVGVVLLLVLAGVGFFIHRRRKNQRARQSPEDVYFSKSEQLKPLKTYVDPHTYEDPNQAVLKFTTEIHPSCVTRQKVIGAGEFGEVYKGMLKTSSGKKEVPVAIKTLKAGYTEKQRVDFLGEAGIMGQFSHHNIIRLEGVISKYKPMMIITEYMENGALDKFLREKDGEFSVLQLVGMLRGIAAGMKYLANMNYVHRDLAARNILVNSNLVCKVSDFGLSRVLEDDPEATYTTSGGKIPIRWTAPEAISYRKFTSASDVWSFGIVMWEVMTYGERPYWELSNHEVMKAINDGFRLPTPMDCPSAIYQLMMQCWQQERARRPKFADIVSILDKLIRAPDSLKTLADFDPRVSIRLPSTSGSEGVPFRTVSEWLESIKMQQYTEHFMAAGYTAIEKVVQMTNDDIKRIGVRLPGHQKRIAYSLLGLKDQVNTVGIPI
# Protocol: Inhibition of recombinant human N-terminal His6-tagged EphA2 (N598 to R890 residues) expressed in baculovirus using poly-EY as substrate after 180 mins by luciferase coupled chemiluminescence assay
pIC50: −log10 of the molar value.

# annotated cases, reported pIC50 shown
COc1cc2c(Nc3ccc(Cl)c(Cl)c3)ncnc2cc1OCC1CN(S(=O)(=O)c2ccccc2)CCO1 (centres undefined) ... 4.70 to 6.00
COc1cc2c(Nc3ccc(Cl)c(Cl)c3)ncnc2cc1OCC1CN(C(C)=O)CCO1 (centres undefined) ... 6.00 to 7.30
COc1cc2c(Nc3ccc(Cl)c(Cl)c3)ncnc2cc1OCc1nc2c(s1)CN(C)CC2 ... 6.00 to 7.30
CCCC(C)C(=O)N1CCOC(COc2cc3ncnc(Nc4ccc(Cl)c(Cl)c4)c3cc2OC)C1 (centres undefined) ... 6.00 to 7.30

Turning now to a further record.
[ask] Requested read-out pIC50, target or system Ephrin type-A receptor 2 (Homo sapiens, UniProt P29317), entry COc1cc2c(Nc3ccc(Cl)c(Cl)c3)ncnc2cc1OCc1csc(C2CCCN(C)C2)n1 (centres undefined)
[reply] 6.00 to 7.30
